- assayProcedure: Half life in rat plasma at 100 uM
- Type: ADME, cell-free
reportedMetric: half-life at 100 µM (h)

- recordSmiles: "CS(=O)(=O)NC(=O)[C@H](Cc1ccccc1)NC(=O)OCc1ccccc1"
  measuredNumber: 6.9

----------
- assayProcedure: Efflux ratio of apparent permeability from basolateral to apical side to apical to basolateral side of human Caco2 cells
- Type: ADME, cell-based
- conditionsUsed: Caco-2
reportedMetric: efflux ratio

- recordSmiles: "NC(=O)[C@H](Cc1ccccc1)NC(=O)OCc1ccccc1"
  result: 1

----------
- system: Solute carrier family 15 member 1 (Homo sapiens, UniProt P46059)
- Sequence (P46059 whole entry): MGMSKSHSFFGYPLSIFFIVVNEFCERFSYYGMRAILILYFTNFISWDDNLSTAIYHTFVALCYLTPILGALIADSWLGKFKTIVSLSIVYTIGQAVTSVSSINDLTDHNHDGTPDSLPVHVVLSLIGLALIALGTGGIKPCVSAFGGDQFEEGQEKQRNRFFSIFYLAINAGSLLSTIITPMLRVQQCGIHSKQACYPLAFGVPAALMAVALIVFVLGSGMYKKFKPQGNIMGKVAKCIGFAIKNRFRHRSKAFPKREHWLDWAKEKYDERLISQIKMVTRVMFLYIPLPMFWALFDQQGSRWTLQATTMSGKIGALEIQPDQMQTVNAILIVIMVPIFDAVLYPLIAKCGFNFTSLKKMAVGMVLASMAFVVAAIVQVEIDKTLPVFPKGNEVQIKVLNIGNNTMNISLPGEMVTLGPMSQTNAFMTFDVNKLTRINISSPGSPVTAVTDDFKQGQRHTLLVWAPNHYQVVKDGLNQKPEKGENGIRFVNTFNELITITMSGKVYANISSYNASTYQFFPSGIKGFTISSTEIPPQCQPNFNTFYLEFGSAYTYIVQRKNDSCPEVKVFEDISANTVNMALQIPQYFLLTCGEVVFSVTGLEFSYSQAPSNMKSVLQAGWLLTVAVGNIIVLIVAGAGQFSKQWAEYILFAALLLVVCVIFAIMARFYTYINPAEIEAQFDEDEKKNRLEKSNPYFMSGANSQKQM
- assayProcedure: Drug uptake in CHO-PepT1 cells expressing PepT1 (unknown origin) assessed as transporter mediated uptake at 25 uM
- Format: ADME, cell-based, Cricetulus griseus
- conditionsUsed: chinese hamster, cho-pept1, 25 µM
The following molecules are shown together with reported Drug uptake values.
reportedMetric: Drug uptake (pmol/min/mg)

- recordSmiles: "O=C(N[C@@H](Cc1ccccc1)C(=O)NO)OCc1ccccc1"
  measuredNumber: 5
- recordSmiles: "O=C(N[C@@H](Cc1ccccc1)C(=O)NNC(=O)c1ccccc1)OCc1ccccc1"
  measuredNumber: 127
- recordSmiles: "O=C(N[C@@H](Cc1ccccc1)c1nnc(-c2ccccc2)o1)OCc1ccccc1"
  measuredNumber: 1082
- recordSmiles: "N#CNC(=O)[C@H](Cc1ccccc1)NC(=O)OCc1ccccc1"
  measuredNumber: 4

----------
- assayProcedure: Fraction unbound in rat brain at 10 uM
- Format: ADME, tissue-based

- recordSmiles: "NC(=O)[C@H](Cc1ccccc1)NC(=O)OCc1ccccc1"
  fraction unbound at 10 µM: 0.17

----------
- assayProcedure: Drug recovery in rat brain at 10 uM
- Type: ADME, tissue-based
- conditionsUsed: read-out: Drug recovery
reportedMetric: recovery at 10 µM

- recordSmiles: "NC(=O)[C@H](Cc1ccccc1)NC(=O)OCc1ccccc1"
  result: "> 95%"
- recordSmiles: "NC(=O)[C@@H]1[C@H](c2ccccc2)CCN1C(=O)[C@@H](N)Cc1ccccc1"
  result: "> 95%"

----------
The following compounds are shown together with reported microsomal CLint values.
- assayProcedure: Intrinsic clearance in rat microsomes
- Type: ADME, Microsome
Peptide text beside a SMILES is read from it.

- compound: "NC(=O)[C@H](Cc1ccccc1)NC(=O)OCc1ccccc1"
  microsomal CLint [µL/min/mg]: 21.2
- compound: "NC(=O)[C@H](Cc1ccccc1)NC(=O)[C@@H](N)Cc1ccccc1 (H-Phe-Phe-NH2)"
  microsomal CLint [µL/min/mg]: 103

----------
- assayProcedure: Fraction unbound in rat plasma at 10 uM
- Format: ADME, cell-free

- recordSmiles: "NC(=O)[C@H](Cc1ccccc1)NC(=O)OCc1ccccc1"
  fraction unbound at 10 µM: 0.18

----------
- assayProcedure: in vitro
- conditionsUsed: human, Caco-2
- Description: Apparent permeability from apical to basolateral side in human Caco2 cells at 25 uM
The following compounds are shown together with reported Papp A→B at 25 µM values.
reportedMetric: Papp A→B at 25 µM (×10⁻⁶ cm/s)

- recordSmiles: "O=C(N[C@@H](Cc1ccccc1)C(=O)NO)OCc1ccccc1"
  measuredNumber: 60
- recordSmiles: "N#CNC(=O)[C@H](Cc1ccccc1)NC(=O)OCc1ccccc1"
  measuredNumber: 52
- recordSmiles: "O=C(N[C@@H](Cc1ccccc1)C(=O)NNC(=O)c1ccccc1)OCc1ccccc1"
  measuredNumber: 11

----------
- assayProcedure: Fraction unbound in human plasma at 10 uM
- Format: ADME, cell-free

- recordSmiles: "NC(=O)[C@H](Cc1ccccc1)NC(=O)OCc1ccccc1"
  fraction unbound at 10 µM: 0.19

----------
- assayProcedure: Half life in human plasma at 25 uM
- Assay type: ADME, cell-free

- recordSmiles: "O=C(N[C@@H](Cc1ccccc1)C(=O)NNC(=O)c1ccccc1)OCc1ccccc1"
  half-life at 25 µM: "9.9 h"
- recordSmiles: "O=C(N[C@@H](Cc1ccccc1)C(=O)NO)OCc1ccccc1"
  half-life at 25 µM: "7.9 h"
- recordSmiles: "N#CNC(=O)[C@H](Cc1ccccc1)NC(=O)OCc1ccccc1"
  half-life at 25 µM: "6.6 h"
- recordSmiles: "O=C(N[C@@H](Cc1ccccc1)c1nnc(-c2ccccc2)o1)OCc1ccccc1"
  half-life at 25 µM: "11.2 h"

----------
- assayProcedure: Half life in human plasma at 100 uM
- Assay type: ADME, cell-free
reportedMetric: half-life at 100 µM

- recordSmiles: "CS(=O)(=O)NC(=O)[C@H](Cc1ccccc1)NC(=O)OCc1ccccc1"
  reportedMetric: "half-life at 100 µM"
  result: "26.7 h"

----------
The following compounds are shown together with reported half-life at 25 µM values.
- assayProcedure: Half life in rat plasma at 25 uM
- Format: ADME, cell-free

- recordSmiles: "O=C(N[C@@H](Cc1ccccc1)C(=O)NNC(=O)c1ccccc1)OCc1ccccc1"
  half-life at 25 µM, h: 0.31
- recordSmiles: "O=C(N[C@@H](Cc1ccccc1)c1nnc(-c2ccccc2)o1)OCc1ccccc1"
  half-life at 25 µM, h: 8.7
- recordSmiles: "O=C(N[C@@H](Cc1ccccc1)C(=O)NO)OCc1ccccc1"
  half-life at 25 µM, h: 0.06
- recordSmiles: "N#CNC(=O)[C@H](Cc1ccccc1)NC(=O)OCc1ccccc1"
  half-life at 25 µM, h: 8.7

----------
- assayProcedure: Apparent permeability from basolateral to apical side in human Caco2 cells at 100 uM
- Type: ADME, cell-based
- conditionsUsed: Caco-2

- recordSmiles: "CS(=O)(=O)NC(=O)[C@H](Cc1ccccc1)NC(=O)OCc1ccccc1"
  measurementUnit: "×10⁻⁶ cm/s"
  Papp B→A at 100 µM: 3

----------
- assayProcedure: Drug uptake in CHOK1 cells at 25 uM
- Assay type: ADME, cell-based, Cricetulus griseus
- conditionsUsed: chinese hamster, cho-k1, 25 µM
reportedMetric: Drug uptake (pmol/min/mg)

- recordSmiles: "O=C(N[C@@H](Cc1ccccc1)c1nnc(-c2ccccc2)o1)OCc1ccccc1"
  reportedMetric: "Drug uptake"
  measuredNumber: 1128
- recordSmiles: "O=C(N[C@@H](Cc1ccccc1)C(=O)NO)OCc1ccccc1"
  reportedMetric: "Drug uptake"
  measuredNumber: 4
- recordSmiles: "O=C(N[C@@H](Cc1ccccc1)C(=O)NNC(=O)c1ccccc1)OCc1ccccc1"
  reportedMetric: "Drug uptake"
  measuredNumber: 156
- recordSmiles: "N#CNC(=O)[C@H](Cc1ccccc1)NC(=O)OCc1ccccc1"
  reportedMetric: "Drug uptake"
  measuredNumber: 4

----------
- assayProcedure: Apparent permeability from apical to basolateral side in human Caco2 cells
- Format: ADME, cell-based
- conditionsUsed: Caco-2

- recordSmiles: "NC(=O)[C@H](Cc1ccccc1)NC(=O)OCc1ccccc1"
  Papp A→B / ×10⁻⁶ cm/s: 31

Where do the numbers come from? From ChEMBL document CHEMBL3351280.
